study.target: Avi-humanTEAD4 217-434 / Cy5 labeled humanYAP 60-100 (Homo sapiens (Human), UniProt Q15561)
Sequence (Q15561 217-434): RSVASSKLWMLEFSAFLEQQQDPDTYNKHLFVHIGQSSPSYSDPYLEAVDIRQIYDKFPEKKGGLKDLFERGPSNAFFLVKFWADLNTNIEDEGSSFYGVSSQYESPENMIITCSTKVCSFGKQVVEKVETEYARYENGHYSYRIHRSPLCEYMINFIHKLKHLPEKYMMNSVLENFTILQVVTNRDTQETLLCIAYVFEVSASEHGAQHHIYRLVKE
method.description: TR-FRET YAP-TEAD4 in-vitro biochemical assay
test.parameters: 1 nM Avi-humanTEAD4 217-434, 20 nM Cy5-humanYAP 60-100, 1 h room temperature
pIC50: −log10 of the molar value.
// label = fulfilled if pIC50 is not less than 8, otherwise not fulfilled

Prompt: Entry COCCOc1ccc(C(N)=O)c(-c2c(Cl)c(F)cc3c2[C@H](C)[C@@](CN)(c2ccccc2)O3)c1F (atropisomer, axis not shown) [Example 106] : is its pIC50 no less than 8?
Completion: fulfilled

Prompt: Entry NC[C@@]1(c2ccccc2)Cc2c(cc(F)c(Cl)c2-c2c(F)cccc2C(N)=O)N1 (atropisomer, axis not shown) [Example 134] : is its pIC50 no less than 8?
Completion: not fulfilled

Prompt: Entry CNC[C@]1(c2ccccc2)Oc2cc(F)c(Cl)c(-c3c(C(N)=O)ccc(OC)c3F)c2[C@@H]1COC (atropisomer, axis not shown) [Example 146] : is its pIC50 no less than 8?
Completion: fulfilled

Prompt: Entry CNC[C@@]1(c2ccccc2)Cc2c(ccc(Cl)c2-c2c(C(N)=O)ccc(OC)c2F)O1 (atropisomer, axis not shown) [Example 21] : is its pIC50 no less than 8?
Completion: fulfilled

Prompt: Entry CNc1ccc(C(N)=O)c(-c2c(Cl)ccc3c2C[C@@](CN)(c2ccccc2)O3)c1F (atropisomer, axis not shown) [Example 20] : is its pIC50 no less than 8?
Completion: not fulfilled

Prompt: Entry COCCOc1ncc(C(N)=O)c(-c2c(Cl)c(F)cc3c2[C@H](C)[C@@](CN)(c2ccccc2)O3)c1F (atropisomer, axis not shown) [Example 108] : is its pIC50 no less than 8?
Completion: fulfilled

Prompt: Entry CNC[C@]1(c2ccccc2)Oc2cc(F)c(Cl)c(-c3c(C(N)=O)ccc(OC)c3F)c2[C@@H]1C (atropisomer, axis not shown) [Example 144] : is its pIC50 no less than 8?
Completion: fulfilled

Prompt: Entry CNC[C@]1(c2ccccc2)Oc2cc(F)c(Cl)c(-c3c(C(N)=O)ccc(OCCO)c3F)c2[C@@H]1C (atropisomer, axis not shown) [Example 110] : is its pIC50 no less than 8?
Completion: fulfilled

Prompt: Entry CNC(=O)c1cnc(O)c(F)c1-c1c(Cl)c(F)cc2c1C[C@](c1ccccc1)([C@@H]1CCCN1)O2 [Example 157] : is its pIC50 no less than 8?
Completion: not fulfilled

Prompt: Entry C[C@H](O)COc1ccc(C#N)c(-c2c(Cl)c(F)cc3c2[C@H](C)[C@@](CN[C@H]2CC[C@](C)(O)CC2)(c2ccccc2)O3)c1F (atropisomer, axis not shown) [Example 120] : is its pIC50 no less than 8?
Completion: fulfilled

Prompt: Entry COc1ccc(C(N)=O)c(-c2c(Cl)ccc3c2C[C@@](CN)(c2ccccc2F)O3)c1F (atropisomer, axis not shown) [Example 31] : is its pIC50 no less than 8?
Completion: fulfilled

Prompt: Entry COc1ccc(C(N)=O)c(-c2c(Cl)c(F)cc3c2C[C@@](CN)(c2ccccc2)O3)c1F (atropisomer, axis not shown) [Example 33] : is its pIC50 no less than 8?
Completion: fulfilled

Prompt: Entry Cc1cccc(C(N)=O)c1-c1c(Cl)ccc2c1C[C@@](CN)(c1ccccc1)O2 (atropisomer, axis not shown) [Example 6] : is its pIC50 no less than 8?
Completion: not fulfilled

Prompt: Entry NC(=O)c1ccc(OCCO)c(F)c1-c1c(Cl)c(F)cc2c1C[C@@](CN[C@H]1C[C@@H](CO)C1)(c1ccccc1)O2 (atropisomer, axis not shown) [Example 64b] : is its pIC50 no less than 8?
Completion: fulfilled

Prompt: Entry CNC[C@]1(c2ccccc2)Oc2cc(F)c(Cl)c(-c3c(C(=O)NC)cnc(OCCO)c3F)c2[C@@H]1C (atropisomer, axis not shown) [Example 145] : is its pIC50 no less than 8?
Completion: fulfilled

Prompt: Entry COc1ccc(C(N)=O)c(-c2c(Cl)ccc3c2C[C@@](CN[C@H]2CC[C@H](C(=O)O)CC2)(c2ccccc2)O3)c1F (relative stereo) [Example 28a] : is its pIC50 no less than 8?
Completion: fulfilled

Prompt: Entry C[C@@H](O)CNC[C@@]1(c2ccccc2)Cc2c(cc(F)c(Cl)c2-c2c(C(N)=O)ccc(OC(F)F)c2F)O1 (atropisomer, axis not shown) [Example 74] : is its pIC50 no less than 8?
Completion: not fulfilled

---

Would you mind telling me the reported IC50 of each entry?
study.target: Avi-humanTEAD4 217-434 / Cy5 labeled humanYAP 60-100 (Homo sapiens (Human), UniProt Q15561)
method.description: TR-FRET YAP-TEAD4 in-vitro biochemical assay
Type: binding
test.parameters: 1 nM Avi-humanTEAD4 217-434, 20 nM Cy5-humanYAP 60-100, 1 h room temperature
Reply numerically in nM, unit not repeated.

Prompt: Requested field: IC50. Item: CNC(=O)[C@H]1CC[C@@H](NC[C@@]2(c3ccccc3)Cc3c(ccc(Cl)c3-c3c(F)cccc3C(N)=O)O2)CC1 (relative stereo) [Example 139b]
Completion: 11

Prompt: Requested field: IC50. Item: CNC(=O)c1ccc(OCCO)c(F)c1-c1c(Cl)c(F)cc2c1[C@H](C)[C@@](CN[C@H]1CC[C@](C)(O)CC1)(c1ccccc1)O2 (atropisomer, axis not shown)
Completion: 2

Prompt: Requested field: IC50. Item: COc1ncc(C(N)=O)c(-c2c(Cl)c(F)cc3c2C[C@@](CN)(c2ccccc2)O3)c1F (atropisomer, axis not shown)
Completion: 6

---

Test system: MKN-45/Ubc-luc cells
method.description: Reporter gene specificity control (Ubc-luciferase), MKN-45
test.parameters: Homo sapiens, MKN-45, 24 h, read-out: Reporter gene assay MKN-45 IC50 [μM], MKN-45/Ubc-luc cells (YAP deleted, specificity control), 24 hours incubation
test.readout: IC50

Prompt: Requested field: IC50. Item: NC(=O)c1ccc(OCCO)c(F)c1-c1c(Cl)c(F)cc2c1[C@H](O)[C@@](CNC1CCC1)(c1ccccc1)O2 (atropisomer, axis not shown) [Example 99]
Completion: > 10 µM

Prompt: Requested field: IC50. Item: NC(=O)c1ccc(OC(F)F)c(F)c1-c1c(Cl)ccc2c1[C@H](O)[C@@](CNC1CCC1)(c1ccccc1)O2 (atropisomer, axis not shown) [Example 96]
Completion: > 10 µM

Prompt: Requested field: IC50. Item: COc1ncc(C(N)=O)c(-c2c(Cl)c(F)cc3c2C[C@@](CN)(c2ccccc2)O3)c1F (atropisomer, axis not shown) [Example 42]
Completion: > 10 µM

Prompt: Requested field: IC50. Item: C[C@H](O)COc1ccc(C(N)=O)c(-c2c(Cl)c(F)cc3c2C[C@](c2ccccc2)([C@@H]2CCCN2)O3)c1F (atropisomer, axis not shown) [Example 152]
Completion: > 10 µM

Prompt: Requested field: IC50. Item: CNC(=O)c1cnc(OCCO)c(F)c1-c1c(Cl)c(F)cc2c1C[C@](c1ccccc1)([C@@H]1CCCN1)N2 (atropisomer, axis not shown) [Example 173]
Completion: > 20 µM

Prompt: Requested field: IC50. Item: CNC(=O)c1ccc(OCCO)c(F)c1-c1c(Cl)c(F)cc2c1[C@H](C)[C@@](CN[C@H]1CC[C@](C)(O)CC1)(c1ccccc1)O2 (atropisomer, axis not shown) [Example 121]
Completion: > 10 µM

Prompt: Requested field: IC50. Item: CNC(=O)c1ccc(OC)c(F)c1-c1c(Cl)ccc2c1C[C@@](CN)(c1ccccc1)O2 (atropisomer, axis not shown) [Example 22]
Completion: > 20 µM

Prompt: Requested field: IC50. Item: CNc1ccc(C(N)=O)c(-c2c(Cl)ccc3c2C[C@@](CN)(c2ccccc2)O3)c1F (atropisomer, axis not shown) [Example 20]
Completion: > 10 µM

Prompt: Requested field: IC50. Item: NC[C@@]1(c2ccccc2)Cc2c(cc(F)c(Cl)c2-c2c(C(N)=O)cnc(OCCO)c2F)O1 (atropisomer, axis not shown) [Example 43]
Completion: > 10 µM

Prompt: Requested field: IC50. Item: CN(C)C(=O)C1CCC(NC[C@@]2(c3ccccc3)Cc3c(cc(F)c(Cl)c3-c3c(C(N)=O)ccc(OC(F)F)c3F)O2)CC1 (single isomer, unassigned) [Example 58a]
Completion: > 10 µM

Prompt: Requested field: IC50. Item: CNC[C@@]1(c2ccccc2)Cc2c(cc(F)c(Cl)c2-c2c(C(N)=O)cnc(OCCOC)c2F)O1 (atropisomer, axis not shown) [Example 47]
Completion: > 10 µM

---

Would you mind telling me the reported IC50 of each entry?
study.target: Avi-humanTEAD4 217-434 / Cy5 labeled humanYAP 60-100 (Homo sapiens (Human), UniProt Q15561)
method.description: TR-FRET YAP-TEAD4 in-vitro biochemical assay
Type: binding
test.parameters: 1 nM Avi-humanTEAD4 217-434, 20 nM Cy5-humanYAP 60-100, 1 h room temperature
Reply numerically in nM, unit not repeated.

Prompt: Requested field: IC50. Item: CNC[C@@]1(c2ccccc2)Cc2c(ccc(Cl)c2-c2c(C(=O)NC)ccc(OC)c2F)O1 (atropisomer, axis not shown)
Completion: 21

Prompt: Requested field: IC50. Item: COc1ccc(C(N)=O)c(-c2c(Cl)ccc3c2[C@H](O)[C@@](CN)(c2cccnc2OC)O3)c1F (atropisomer, axis not shown)
Completion: 22
